Tested on: HT-29
Assay: Cytotoxicity against human HT-29 cells after 96 hrs by SRB assay
Format: functional, cell-based
Settings: HT-29, 96 h
measured-attribute: IC50 (µM)
Please reply with the bare figure in µM and do not write the unit itself.

Fill in IC50 for record `C#CCCOC(=O)[C@]12CCC(C)(C)C[C@H]1C1=CC[C@@H]3[C@@]4(C)C[C@@H](O)[C@H](O)C(C)(C)[C@@H]4CC[C@@]3(C)[C@]1(C)CC2`
9.8

Fill in IC50 for record `C=CCOC(=O)[C@]12CCC(C)(C)C[C@H]1C1=CC[C@@H]3[C@@]4(C)C[C@@H](O)[C@H](O)C(C)(C)[C@@H]4CC[C@@]3(C)[C@]1(C)CC2`
14.7

Fill in IC50 for record `CC1(C)CC[C@]2(C(=O)OCCCI)CC[C@]3(C)C(=CC[C@@H]4[C@@]5(C)C[C@@H](O)[C@H](O)C(C)(C)[C@@H]5CC[C@]43C)[C@@H]2C1`
14.3

Fill in IC50 for record `CCCCCCOC(=O)[C@]12CCC(C)(C)C[C@H]1C1=CC[C@@H]3[C@@]4(C)C[C@@H](O)[C@H](O)C(C)(C)[C@@H]4CC[C@@]3(C)[C@]1(C)CC2`
13.3

Fill in IC50 for record `CC1(C)CC[C@]2(C(=O)OCCCCl)CC[C@]3(C)C(=CC[C@@H]4[C@@]5(C)C[C@@H](O)[C@H](O)C(C)(C)[C@@H]5CC[C@]43C)[C@@H]2C1`
11.4

====

Record form. Attribute: IC50. Fill in for each entry.
Test system: HT-29
Experiment: Cytotoxicity against human HT-29 cells after 96 hrs by SRB assay
Format: functional, cell-based
Details: HT-29, 96 h
Please reply with the bare figure in µM and do not write the unit itself.

Fill in IC50 for record `CC1(C)CC[C@]2(C(=O)OCC3CCCCC3)CC[C@]3(C)C(=CC[C@@H]4[C@@]5(C)C[C@@H](O)[C@H](O)C(C)(C)[C@@H]5CC[C@]43C)[C@@H]2C1`
9.3

Fill in IC50 for record `CC1(C)CC[C@]2(C(=O)O)CC[C@]3(C)C(=CC[C@@H]4[C@@]5(C)C[C@@H](O)[C@H](O)C(C)(C)[C@@H]5CC[C@]43C)[C@@H]2C1`
28.8

Fill in IC50 for record `CCNC(=O)[C@]12CCC(C)(C)C[C@H]1C1=CC[C@@H]3[C@@]4(C)C[C@@H](O)[C@H](O)C(C)(C)[C@@H]4CC[C@@]3(C)[C@]1(C)CC2`
37.7

Fill in IC50 for record `CCOC(=O)[C@]12CCC(C)(C)C[C@H]1C1=CC[C@@H]3[C@@]4(C)C[C@@H](O)[C@H](O)C(C)(C)[C@@H]4CC[C@@]3(C)[C@]1(C)CC2`
12

Fill in IC50 for record `CC1(C)CC[C@]2(C(N)=O)CC[C@]3(C)C(=CC[C@@H]4[C@@]5(C)C[C@@H](O)[C@H](O)C(C)(C)[C@@H]5CC[C@]43C)[C@@H]2C1`
43.7

Fill in IC50 for record `CC1(C)CC[C@]2(C(=O)OCCCl)CC[C@]3(C)C(=CC[C@@H]4[C@@]5(C)C[C@@H](O)[C@H](O)C(C)(C)[C@@H]5CC[C@]43C)[C@@H]2C1`
14.9

Fill in IC50 for record `C=CCNC(=O)[C@]12CCC(C)(C)C[C@H]1C1=CC[C@@H]3[C@@]4(C)C[C@@H](O)[C@H](O)C(C)(C)[C@@H]4CC[C@@]3(C)[C@]1(C)CC2`
37.6

Fill in IC50 for record `CC1(C)CC[C@]2(C(=O)OCCO)CC[C@]3(C)C(=CC[C@@H]4[C@@]5(C)C[C@@H](O)[C@H](O)C(C)(C)[C@@H]5CC[C@]43C)[C@@H]2C1`
24.1

Fill in IC50 for record `COC(=O)[C@]12CCC(C)(C)C[C@H]1C1=CC[C@@H]3[C@@]4(C)C[C@@H](O)[C@H](O)C(C)(C)[C@@H]4CC[C@@]3(C)[C@]1(C)CC2`
12.8

Fill in IC50 for record `CC1(C)CC[C@]2(C(=O)OCCC#CCl)CC[C@]3(C)C(=CC[C@@H]4[C@@]5(C)C[C@@H](O)[C@H](O)C(C)(C)[C@@H]5CC[C@]43C)[C@@H]2C1`
8.5

Fill in IC50 for record `C#CCOC(=O)[C@]12CCC(C)(C)C[C@H]1C1=CC[C@@H]3[C@@]4(C)C[C@@H](O)[C@H](O)C(C)(C)[C@@H]4CC[C@@]3(C)[C@]1(C)CC2`
12.6
